- System: MDA-MB-231 cells
- TEST METHOD NOTES: Cytotoxic activity, WST-1 assay, breast cancer MDA-MB-231
- Type: cell-based, human
- CONDITION SET: HFF-1 vs MDA-MB-231
Assign Yes whenever SI (IC50 HFF-1/IC50 cancer line) MDA-MB-231 does not fall below 7; assign No whenever it does.

# COMPOUND, CAT
records = [
    ("O=C1C(Cl)=C(Oc2cccc3ccc(N4CCCC4)nc23)C(=O)c2ccccc21 [Compound 14e]", "No"),
    ("O=C1C(Cl)=C(Oc2cccc3ccc(N4CCCC4)nc23)C(=O)c2cnccc21 [Compound 13e]", "No"),
    ("O=Cc1ccc2cccc(OC3=C(Cl)C(=O)c4ccncc4C3=O)c2n1 [Compound 13c]", "Yes"),
    ("Cc1ccc2c(n1)C(=O)C(Oc1cccc3cccnc13)=C(Cl)C2=O [Compound 12a]", "Yes"),
    ("Cc1ccc2cccc(OC3=C(Cl)C(=O)c4ccncc4C3=O)c2n1 [Compound 13b]", "Yes"),
    ("O=Cc1ccc2cccc(OC3=C(Cl)C(=O)c4ccccc4C3=O)c2n1 [Compound 14c]", "No"),
    ("O=C1C(Cl)=C(Oc2cccc3ccc(N4CCOCC4)nc23)C(=O)c2cnccc21 [Compound 13f]", "Yes"),
    ("O=C1C(Cl)=C(Oc2cccc3ccc(N4CCOCC4)nc23)C(=O)c2ncccc21 [Compound 11f]", "No"),
]

Problem: # bool: SI (IC50 HFF-1/IC50 cancer line) MDA-MB-231 of Cc1ccc2c(n1)C(=O)C(Oc1cccc3ccc(C)nc13)=C(Cl)C2=O [Compound 12b] >= 7
Solution: No

Problem: # bool: SI (IC50 HFF-1/IC50 cancer line) MDA-MB-231 of Cc1ccc2c(n1)C(=O)C(Oc1cccc3ccc(C=O)nc13)=C(Cl)C2=O [Compound 12c] >= 7
Solution: No

Problem: # bool: SI (IC50 HFF-1/IC50 cancer line) MDA-MB-231 of O=C1C(Cl)=C(Oc2cccc3ccc(Cl)nc23)C(=O)c2cnccc21 [Compound 13d] >= 7
Solution: No

Problem: # bool: SI (IC50 HFF-1/IC50 cancer line) MDA-MB-231 of O=C1C(Cl)=C(Oc2cccc3ccc(Cl)nc23)C(=O)c2ncccc21 [Compound 11d] >= 7
Solution: No

Problem: # bool: SI (IC50 HFF-1/IC50 cancer line) MDA-MB-231 of O=C1C(Cl)=C(Oc2cccc3cccnc23)C(=O)c2cnccc21 [Compound 13a] >= 7
Solution: Yes

Problem: # bool: SI (IC50 HFF-1/IC50 cancer line) MDA-MB-231 of Cc1ccc2cccc(OC3=C(Cl)C(=O)c4cccnc4C3=O)c2n1 [Compound 11b] >= 7
Solution: Yes

###

- MEASURED ON: NQO1 (DT-diaphorase, EC 1.6.5.5, human recombinant) (Homo sapiens)
- Construct: purchased Sigma-Aldrich
- Sequence (P15559 whole entry): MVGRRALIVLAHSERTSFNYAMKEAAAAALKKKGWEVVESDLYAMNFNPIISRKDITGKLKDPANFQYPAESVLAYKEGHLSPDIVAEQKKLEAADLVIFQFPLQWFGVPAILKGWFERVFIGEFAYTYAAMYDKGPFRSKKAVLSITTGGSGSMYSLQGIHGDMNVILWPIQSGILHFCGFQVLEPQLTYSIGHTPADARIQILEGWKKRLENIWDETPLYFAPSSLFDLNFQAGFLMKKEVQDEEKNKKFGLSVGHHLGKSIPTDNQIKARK
- TEST METHOD NOTES: NQO1 substrate NADPH recycling enzymatic assay
- Assay type: biochemical
- CONDITION SET: compound 10 µmol/L, pH 7.4, 25 °C, absorbance at 340 nm
Assign rule met whenever NQO1 activity (enzymatic conversion rate) does not fall below 800 µmol NADPH/µmol NQO1/min; assign rule not met whenever it does.

Sample answers from the record:
# MOLECULE, CAT
rows = [
    ("Cc1ccc2c(n1)C(=O)C(Oc1cccc3cccnc13)=C(Cl)C2=O [Compound 12a]", "rule met"),
    ("COC1=C(N)C(=O)c2nc(-c3nc(C(=O)O)c(C)c(-c4ccc(OC)c(OC)c4O)c3N)ccc2C1=O [ST, streptonigrin, reference compound]", "rule not met"),
]

Problem: # bool: NQO1 activity (enzymatic conversion rate) of O=Cc1ccc2cccc(OC3=C(Cl)C(=O)c4cccnc4C3=O)c2n1 [Compound 11c] >= 800 µmol NADPH/µmol NQO1/min
Solution: rule met

Problem: # bool: NQO1 activity (enzymatic conversion rate) of O=C1C(Cl)=C(Oc2cccc3ccc(N4CCOCC4)nc23)C(=O)c2ccccc21 [Compound 14f] >= 800 µmol NADPH/µmol NQO1/min
Solution: rule not met

Problem: # bool: NQO1 activity (enzymatic conversion rate) of O=C1C(Cl)=C(Oc2cccc3ccc(N4CCCC4)nc23)C(=O)c2ncccc21 [Compound 11e] >= 800 µmol NADPH/µmol NQO1/min
Solution: rule met

Problem: # bool: NQO1 activity (enzymatic conversion rate) of Cc1ccc2c(n1)C(=O)C(Oc1cccc3ccc(Cl)nc13)=C(Cl)C2=O [Compound 12d] >= 800 µmol NADPH/µmol NQO1/min
Solution: rule met

Problem: # bool: NQO1 activity (enzymatic conversion rate) of O=Cc1ccc2cccc(OC3=C(Cl)C(=O)c4ccncc4C3=O)c2n1 [Compound 13c] >= 800 µmol NADPH/µmol NQO1/min
Solution: rule not met
